Property: GI50 at 72 h; scope: individual compounds
Experiment: Antiproliferative activity against HUVEC after 72 hrs by resazurin dye reduction assay
Format: cell-based
Conditions: human, HUVEC cells
Give just the number in µM; leave the unit off.

Example compounds with recorded GI50 at 72 h:
Compound: CCCCCCCCCCCC/C=C/N(NC(=O)COC)C(=O)CCCCCCCCC
GI50 at 72 h, µM: 46.2

Compound: CCCCCCCCCCCC/C=C\N(NC(=O)CCl)C(=O)CCCCCCCCC
GI50 at 72 h, µM: 57.5

Compound: CCCCCCCCCCCCCCN(NC(=O)COC)C(=O)CCCCCCCCC
GI50 at 72 h, µM: 103

Given "CCCCCCCCCCCC/C=C/N(NC(=O)COC)C(=O)OC(C)(C)C" , state its recorded GI50 at 72 h. 36.1

Entry "CCCCCCCCCCCC/C=C\N(NC(C)=O)C(=O)CCCCCCCCC" please 39.7

Moving on to "CCCCCCCCCCN(NC(=O)COC)C(=O)CCCCCCCCC" 114

Would you kindly repeat that for "CCCCCCCCCCCCCCNNC(=O)COC" ? 33.6

Can you handle "CCCCCCCC/C=C/N(NC(=O)COC)C(=O)OC(C)(C)C" next? 49.9

// repeat for CCCCCCCCCCCC/C=C\N(NC(=O)COC)C(=O)CCCCCCCCC [HYDRAZIDOMYCIN A] and report 70.7
